Form field: kcat/Km (one value per entry).
- Substrate: NC(=O)N[C@@H](O)C(=O)O
- EXPERIMENTAL_PROTOCOL: purified protein
- Type: biochemical, Escherichia coli
- ASSAY_SETUP: 3 mM NAD+ (saturating), 30 °C, value in parentheses is standard error, His-tag kept
Value expressed in M⁻¹ s⁻¹; do not type the unit.

Use the examples below as a reference point.
(S)-ureidoglycolate dehydrogenase (AllD) (Escherichia coli K-12; D141E) (protein, full length, modified pET28b with N-terminal His-tag and TEV site, expressed in E. coli BL21(DE3); tag cut for crystals, kept on mutant enzymes for kinetics; homodimer) MKISRETLHQLIENKLCQAGLKREHAATVAEVLVYADARGIHSHGAVRVEYYAERISKGGTNREPEFRLEETGPCSAILHADNAAGQVAAKMGMEHAIKTAQQNGVAVVGISRMGHSGAISYFVQQAARAGFIGISMCQSEPMVVPFGGAEIYYGTNPLAFAAPGEGDEILTFDMATTVQAWGKVLDARSRNMSIPDTWAVDKNGVPTTDPFAVHALLPAAGPKGYGLMMMIDVLSGVLLGLPFGRQVSSMYDDLHAGRNLGQLHIVINPNFFSSSELFRQHLSQTMRELNAITPAPGFNQVYYPGQDQDIKQRKAAVEGIEIVDDIYQYLISDALYNTSYETKNPFAQ ... 120
(S)-ureidoglycolate dehydrogenase (AllD) (Escherichia coli K-12; Y52F) (protein, full length, modified pET28b with N-terminal His-tag and TEV site, expressed in E. coli BL21(DE3); tag cut for crystals, kept on mutant enzymes for kinetics; homodimer) MKISRETLHQLIENKLCQAGLKREHAATVAEVLVYADARGIHSHGAVRVEYFAERISKGGTNREPEFRLEETGPCSAILHADNAAGQVAAKMGMEHAIKTAQQNGVAVVGISRMGHSGAISYFVQQAARAGFIGISMCQSDPMVVPFGGAEIYYGTNPLAFAAPGEGDEILTFDMATTVQAWGKVLDARSRNMSIPDTWAVDKNGVPTTDPFAVHALLPAAGPKGYGLMMMIDVLSGVLLGLPFGRQVSSMYDDLHAGRNLGQLHIVINPNFFSSSELFRQHLSQTMRELNAITPAPGFNQVYYPGQDQDIKQRKAAVEGIEIVDDIYQYLISDALYNTSYETKNPFAQ ... 110
(S)-ureidoglycolate dehydrogenase (AllD) (Escherichia coli K-12; S43A) (protein, full length, modified pET28b with N-terminal His-tag and TEV site, expressed in E. coli BL21(DE3); tag cut for crystals, kept on mutant enzymes for kinetics; homodimer) MKISRETLHQLIENKLCQAGLKREHAATVAEVLVYADARGIHAHGAVRVEYYAERISKGGTNREPEFRLEETGPCSAILHADNAAGQVAAKMGMEHAIKTAQQNGVAVVGISRMGHSGAISYFVQQAARAGFIGISMCQSDPMVVPFGGAEIYYGTNPLAFAAPGEGDEILTFDMATTVQAWGKVLDARSRNMSIPDTWAVDKNGVPTTDPFAVHALLPAAGPKGYGLMMMIDVLSGVLLGLPFGRQVSSMYDDLHAGRNLGQLHIVINPNFFSSSELFRQHLSQTMRELNAITPAPGFNQVYYPGQDQDIKQRKAAVEGIEIVDDIYQYLISDALYNTSYETKNPFAQ ... 130

# input for lookup
Look at this protein and give its reported kcat/Km. (S)-ureidoglycolate dehydrogenase (AllD) (Escherichia coli K-12; S140A) (protein, full length, modified pET28b with N-terminal His-tag and TEV site, expressed in E. coli BL21(DE3); tag cut for crystals, kept on mutant enzymes for kinetics; homodimer) MKISRETLHQLIENKLCQAGLKREHAATVAEVLVYADARGIHSHGAVRVEYYAERISKGGTNREPEFRLEETGPCSAILHADNAAGQVAAKMGMEHAIKTAQQNGVAVVGISRMGHSGAISYFVQQAARAGFIGISMCQADPMVVPFGGAEIYYGTNPLAFAAPGEGDEILTFDMATTVQAWGKVLDARSRNMSIPDTWAVDKNGVPTTDPFAVHALLPAAGPKGYGLMMMIDVLSGVLLGLPFGRQVSSMYDDLHAGRNLGQLHIVINPNFFSSSELFRQHLSQTMRELNAITPAPGFNQVYYPGQDQDIKQRKAAVEGIEIVDDIYQYLISDALYNTSYETKNPFAQ
100
